Exercise: for every item that follows, state its recorded pKd.
- target system: T1, human KIX domain of CBP (residues 587-673) with 36 extra N-terminal residues (human, UniProt Q92793 587-673, RED-tris-NTA dye bound non-covalently to the His tag)
- T1 construct: synthetic codon-optimised gene in pET100/TOPO; construct 14.5 kDa; no cleavage is described; also called His-tagged KIX domain; source: E. coli BL21 DE3, purified (Histrap HP, Resource Q, Superdex 75); not shown: His6, N-terminal, kept
- T1 sequence (Q92793 587-673): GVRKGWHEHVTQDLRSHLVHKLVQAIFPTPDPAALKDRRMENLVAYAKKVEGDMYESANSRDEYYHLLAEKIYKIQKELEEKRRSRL
- experiment: MST; His-tagged KIX labelled with RED-tris-NTA, 20 nM; peptide varied; PBS-Tween (pH 7.4; 0.05% v/v Tween 20); Monolith NT
- protocol conditions: both partners purified
pKd: −log10 of the molar value.

• CGLLLDELLASPEFLQQ (source: synthetic peptide, bought: GenScript) [DUX4 9aaTAD peptide for binding analysis] = ~6.70

Now let's try a different one.
Which measured pKd value corresponds to EEEYRALLEE (source: synthetic peptide, bought: GenScript) [DUX4 KBM peptide for binding analysis] ?
~6.22
